Reference source: patent US9992994B2

Experiment: compatibility of diquats with anionic surfactant in water
Assay type: physicochemical
Parameters: key: Cl. = Clear; Blu. = Bluish; Visc. = Viscous; Prec. = Precipitate; Turb. = Turbid
Conditions: mixture with Sodium Laureth Sulfate, 1 wt % total surfactant in water, ambient temperature, 40% diquat
Description: To delimit the applicability of the Diquats the compatibility in different ratios with LES was tested in the temperature range between 0° C. and 90° C. […] With a hydrocarbon tail of up to 10 carbon atoms no precipitation was observed and with increasing chain length only a very narrow region of mixing ratios led to an insoluble deposit.

[
  {
    "COMPOUND": "CCCCCCCCCC(=O)N(CCC[N+](C)(C)C)CCC[N+](C)(C)C.[Cl-].[Cl-] [C10MeCl]",
    "Compatibility observation, 40% of Diquat": "Cl."
  },
  {
    "COMPOUND": "CCCCCCCC(=O)N(CCC[N+](C)(C)Cc1ccccc1)CCC[N+](C)(C)Cc1ccccc1.[Br-].[Br-] [C8BnBr]",
    "Compatibility observation, 40% of Diquat": "Prec."
  },
  {
    "COMPOUND": "CCCCCCCCCCCC(=O)N(CCC[N+](C)(C)C)CCC[N+](C)(C)C.[Cl-].[Cl-] [C12MeCl]",
    "Compatibility observation, 40% of Diquat": "Blu."
  },
  {
    "COMPOUND": "CCCCCCCC(=O)N(CCC[N+](C)(C)C)CCC[N+](C)(C)C.[Cl-].[Cl-] [C8MeCl]",
    "Compatibility observation, 40% of Diquat": "Cl."
  },
  {
    "COMPOUND": "CCCCCCCC[N+](C)(C)CCCN(CCC[N+](C)(C)CCCCCCCC)C(=O)CCCCCCC.[Br-].[Br-] [C8OcBr]",
    "Compatibility observation, 40% of Diquat": "Blu."
  },
  {
    "COMPOUND": "CCCCCCCCCCCCCC(=O)N(CCC[N+](C)(C)C)CCC[N+](C)(C)C.[Cl-].[Cl-] [C14MeCl]",
    "Compatibility observation, 40% of Diquat": "Prec."
  },
  {
    "COMPOUND": "CCCCCCCCCCCCCCCC(=O)N(CCC[N+](C)(C)C)CCC[N+](C)(C)C.[Cl-].[Cl-] [C16MeCl]",
    "Compatibility observation, 40% of Diquat": "Prec."
  },
  {
    "COMPOUND": "CCCCCCCCCCCCCCCCCC(=O)N(CCC[N+](C)(C)C)CCC[N+](C)(C)C.[Cl-].[Cl-] [C18MeCl]",
    "Compatibility observation, 40% of Diquat": "Turb."
  }
]

====

Experiment: compatibility of diquats with anionic surfactant in water
Assay type: physicochemical
Parameters: key: Cl. = Clear; Blu. = Bluish; Visc. = Viscous; Prec. = Precipitate; Turb. = Turbid
Details: mixture with Sodium Laureth Sulfate, 1 wt % total surfactant in water, ambient temperature, 30% diquat

[
  {
    "COMPOUND": "CCCCCCCC(=O)N(CCC[N+](C)(C)C)CCC[N+](C)(C)C.[Cl-].[Cl-] [C8MeCl]",
    "Compatibility observation, 30% of Diquat": "Cl."
  },
  {
    "COMPOUND": "CCCCCCCCCCCCCCCC(=O)N(CCC[N+](C)(C)C)CCC[N+](C)(C)C.[Cl-].[Cl-] [C16MeCl]",
    "Compatibility observation, 30% of Diquat": "Visc."
  },
  {
    "COMPOUND": "CCCCCCCC[N+](C)(C)CCCN(CCC[N+](C)(C)CCCCCCCC)C(=O)CCCCCCC.[Br-].[Br-] [C8OcBr]",
    "Compatibility observation, 30% of Diquat": "Blu."
  },
  {
    "COMPOUND": "CCCCCCCCCCCC(=O)N(CCC[N+](C)(C)C)CCC[N+](C)(C)C.[Cl-].[Cl-] [C12MeCl]",
    "Compatibility observation, 30% of Diquat": "Cl."
  }
]

====

Test system: Black nightshade (SOLNI)
Test: adjuvant for glyphosate test on black nightshade
Format: in vivo
Conditions: untreated plant = 100%, IPA-glyphosate 0.6 mM, where named, 0.25% w/v, 14 DAT

[
  {
    "COMPOUND": "CC(C)N.O=C(O)CNCP(=O)(O)O [IPA-glyphosate, reference compound]",
    "Relative weight SOLNI (%)": 55.2
  },
  {
    "COMPOUND": "CCCCCCCC(=O)N(CCCN(C)C)CCCN(C)C",
    "Relative weight SOLNI (%)": 14.1
  },
  {
    "COMPOUND": "CCCCCCCCCCCCCCCCCC(=O)N(CCC[N+](C)(C)C)CCC[N+](C)(C)C.[Cl-].[Cl-] [R2, R3, R4, R5, R6 = —CH3 R1 = —C17H35]",
    "Relative weight SOLNI (%)": 24.0
  },
  {
    "COMPOUND": "CCCCCCCCCCCC(=O)N(CCC[N+](C)(C)C)CCC[N+](C)(C)C.[Cl-].[Cl-] [R2, R3, R4, R5, R6 = —CH3 R1 = —C11H23]",
    "Relative weight SOLNI (%)": 50.0
  }
]

====

Assay: compatibility of diquats with anionic surfactant in water
Assay type: physicochemical
Design: key: Cl. = Clear; Blu. = Bluish; Visc. = Viscous; Prec. = Precipitate; Turb. = Turbid
Details: mixture with Sodium Laureth Sulfate, 1 wt % total surfactant in water, ambient temperature, 50% diquat
EXPERIMENTAL_ENDPOINT: Compatibility observation, 50% of Diquat

[
  {
    "SMI": "CCCCCCCC(=O)N(CCC[N+](C)(C)Cc1ccccc1)CCC[N+](C)(C)Cc1ccccc1.[Br-].[Br-]",
    "RESULT": "Prec."
  },
  {
    "SMI": "CCCCCCCCCCCCCCCCCC(=O)N(CCC[N+](C)(C)C)CCC[N+](C)(C)C.[Cl-].[Cl-]",
    "RESULT": "Visc."
  },
  {
    "SMI": "CCCCCCCCCCCCCC(=O)N(CCC[N+](C)(C)C)CCC[N+](C)(C)C.[Cl-].[Cl-]",
    "RESULT": "Cl."
  },
  {
    "SMI": "CCCCCCCC[N+](C)(C)CCCN(CCC[N+](C)(C)CCCCCCCC)C(=O)CCCCCCC.[Br-].[Br-]",
    "RESULT": "Turb."
  }
]

====

Tested on: winter wheat (cv. Ilias)
Assay: adjuvant for glyphosate test on wheat
Type: in vivo
Conditions: untreated plant = 100%, IPA-glyphosate 2.3 mM, where named, 0.25% w/v, 21 DAT
# reported Relative weight WHEAT (%); entries follow

[
  {
    "MOLECULE": "CCCCCCCC(=O)N(CCCN(C)C)CCCN(C)C",
    "Relative weight WHEAT (%)": 13.0
  },
  {
    "MOLECULE": "CC(C)N.O=C(O)CNCP(=O)(O)O [IPA-glyphosate, reference compound]",
    "Relative weight WHEAT (%)": 71.7
  },
  {
    "MOLECULE": "CCCCCCCCCCCCCCCCCC(=O)N(CCC[N+](C)(C)C)CCC[N+](C)(C)C.[Cl-].[Cl-] [R2, R3, R4, R5, R6 = —CH3 R1 = —C17H35]",
    "Relative weight WHEAT (%)": 83.5
  },
  {
    "MOLECULE": "CCCCCCCCCCCC(=O)N(CCC[N+](C)(C)C)CCC[N+](C)(C)C.[Cl-].[Cl-] [R2, R3, R4, R5, R6 = —CH3 R1 = —C11H23]",
    "Relative weight WHEAT (%)": 83.8
  }
]
